Values compiled from ChEMBL document CHEMBL1157930.

Molecular target: Dihydrofolate reductase (Rattus norvegicus)
Experiment: Inhibition of rat liver DHFR at IC50 by continuous spectrophotometric assay
assayMetric: inhibition (%)

- COc1ccc(NCc2cnc(N)nc2N)cc1: 0
- Nc1cc(OCCN2c3ccccc3C=Cc3ccccc32)nc(N)n1: 39
- Nc1nc(N)nc(CN2c3ccccc3Sc3ccccc32)n1: 16

----------
Test: Selectivity ratio of IC50 for rat liver DHFR to IC50 for Toxoplasma gondii DHFR
I'd appreciate it if you marked entries YES when Ratio IC50 is lower than 6 and NO when it is not.

• Nc1nc(N)c2cc(COC(=O)c3c4ccccc4cc4ccccc34)ccc2n1 = YES
• Nc1ncc(CN2c3ccccc3C=Cc3ccccc32)c(N)n1 = NO
• Nc1cc(OCCN2c3ccccc3C=Cc3ccccc32)nc(N)n1 = NO
• Nc1ncc(CNc2cccc3ccccc23)c(N)n1 = YES
• Nc1ncc(CSc2nc3ccccc3o2)c(N)n1 = YES
• Nc1nc(N)c2nc(CN3c4ccccc4C=Cc4ccccc43)cnc2n1 = NO
• Nc1ncc(CN2c3ccccc3CCc3ccccc32)c(N)n1 = NO
• CN(Cc1cnc(N)nc1N)c1cccc2ccccc12 = NO
